// self-cleavage lookup, one value per entry
B1: LINE1-full (parent)
chain: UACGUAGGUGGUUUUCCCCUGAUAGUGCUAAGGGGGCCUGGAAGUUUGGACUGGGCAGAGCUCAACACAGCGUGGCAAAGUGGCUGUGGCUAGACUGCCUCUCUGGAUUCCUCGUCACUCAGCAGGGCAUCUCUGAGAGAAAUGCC

Variants of: B1
assay-summary: self-cleavage, relative activity (ratio to wild type); higher = more cleavage; in vitro, sequencing; the parent is a self-cleaving ribozyme
Just the number.

Below are worked cases with known answers.
{"columns": ["alteration", "self-cleavage"],
 "data": [
  ["U26A G122A", 0.72],
  ["U15G A124U", 0.58],
  ["G55A G125C", 0.15],
  ["U112C A117G", 1.42],
  ["G54A U134G", 0.76]
]}

Qu. Given the variant A129G , what is its reported self-cleavage?
Ans. 1.52

Qu. Given the variant G48A A50G , what is its reported self-cleavage?
Ans. 0.53

Values from the RNAGym collection of RNA variant scans (doi:10.7554/elife.90254)
